System: Mast/stem cell growth factor receptor Kit (Homo sapiens), P10721 [V560G]
Sequence (P10721 whole entry V560G): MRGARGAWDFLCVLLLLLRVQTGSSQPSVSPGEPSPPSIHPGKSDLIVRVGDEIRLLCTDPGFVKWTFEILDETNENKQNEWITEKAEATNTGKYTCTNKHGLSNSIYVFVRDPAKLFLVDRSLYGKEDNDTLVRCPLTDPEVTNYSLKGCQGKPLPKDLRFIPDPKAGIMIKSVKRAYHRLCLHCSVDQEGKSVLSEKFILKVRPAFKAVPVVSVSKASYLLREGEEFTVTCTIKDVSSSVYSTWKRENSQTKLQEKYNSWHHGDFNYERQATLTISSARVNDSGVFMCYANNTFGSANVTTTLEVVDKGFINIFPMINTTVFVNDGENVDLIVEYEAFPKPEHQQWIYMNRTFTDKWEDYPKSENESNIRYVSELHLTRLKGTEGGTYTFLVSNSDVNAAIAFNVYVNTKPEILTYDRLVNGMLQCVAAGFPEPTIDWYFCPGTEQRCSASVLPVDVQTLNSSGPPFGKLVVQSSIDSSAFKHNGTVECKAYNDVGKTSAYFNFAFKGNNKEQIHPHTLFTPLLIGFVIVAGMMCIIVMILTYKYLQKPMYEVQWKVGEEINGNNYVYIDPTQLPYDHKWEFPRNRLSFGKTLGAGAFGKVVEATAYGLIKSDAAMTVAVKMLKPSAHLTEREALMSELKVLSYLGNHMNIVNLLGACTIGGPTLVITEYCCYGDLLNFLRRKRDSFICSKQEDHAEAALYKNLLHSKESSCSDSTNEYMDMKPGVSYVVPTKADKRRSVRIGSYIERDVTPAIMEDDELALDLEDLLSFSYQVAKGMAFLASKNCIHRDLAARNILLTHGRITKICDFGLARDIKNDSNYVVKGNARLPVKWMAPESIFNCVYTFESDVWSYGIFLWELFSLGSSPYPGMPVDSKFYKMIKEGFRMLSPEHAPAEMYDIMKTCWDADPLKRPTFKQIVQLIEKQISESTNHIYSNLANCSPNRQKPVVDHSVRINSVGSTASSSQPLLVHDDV
Conditions: at 0.1 µM
So I've got a bunch of compounds here, and I need their inhibition values.
Give bare numbers, in %.

Consider the following illustrative entries.
INSERT INTO results (smiles_data, target_or_test_system, unit_name, observed_value) VALUES
  ('CCn1cc(-c2ccnc3[nH]ccc23)c(-c2cccc(NC(=O)Nc3ccc(OCc4ccccc4)cc3)c2)n1', 'Mast/stem cell growth factor receptor Kit (Homo sapiens), P10721 [V560G]', '%', -1.87),
  ('COc1ccc(CNC(=O)c2ccc(-c3cc(-c4nnc(C)o4)ccc3C)cc2)cc1', 'Mast/stem cell growth factor receptor Kit (Homo sapiens), P10721 [V560G]', '%', 4.68),
  ('COC(=O)Nc1nc2ccc(S(=O)(=O)c3ccc(NC(=O)Nc4cc(C(F)(F)F)ccc4F)cc3)cc2[nH]1', 'Mast/stem cell growth factor receptor Kit (Homo sapiens), P10721 [V560G]', '%', -0.14),
  ('Nc1ncc(-c2cccc(S(N)(=O)=O)c2)c2scc(-c3ccc(F)c(Cl)c3)c12', 'Mast/stem cell growth factor receptor Kit (Homo sapiens), P10721 [V560G]', '%', 3.89);

Here are 2 compounds. What values of inhibition were reported for them?
1. CCn1c(-c2nonc2N)nc2cnc(Oc3cccc(NC(=O)c4ccc(N(C)C)cc4)c3)cc21
2. COc1cc(Nc2nccc(Nc3ccc4c(C)n[nH]c4c3)n2)cc(OC)c1OC

1. -2.78
2. 13.1
